Overview of reported Root Growth (Root Growth of "100" is set as the standard) across a group of molecules:
system: wheat (Triticum aestivum, variety "TRISO"); test: Root growth assay, seed treatment, wheat; type: in vivo; parameters: key: relative root growth; 100 = standard (untreated control); conditions: 10 g a.i./ha, wet root weight 16 (±2) days post treatment
quantity: Root Growth (Root Growth of "100" is set as the standard)

molecule | measured
Nc1nc(Nc2cccc(C(F)(F)F)c2)sc1C(=O)c1ccc(OC(F)F)cc1 [Compound 1.58] | 112
Nc1nc(Nc2ccc(OC(F)(F)F)cc2)sc1C(=O)c1cccnc1 [Compound 1.118] | 122
COc1ccc(Nc2nc(N)c(C(=O)c3cccnc3)s2)cc1 [Compound 1.106] | 99
Nc1nc(NCC2CCCCC2)sc1C(=O)C(Cc1ccccc1)NC(=O)OCc1ccccc1 (stereo not shown) [Compound 1.139] | 66
Nc1nc(Nc2cccnc2)sc1C(=O)c1ccc(OC(F)F)cc1 [Compound 1.60] | 57
Nc1nc(Nc2ccccc2)sc1C(=O)c1cccs1 [Compound 1.79] | 88
Nc1nc(Nc2ccccc2)sc1C(=O)c1ccc(OC(F)F)cc1 [Compound 1.53] | 107
CSc1ccc(Nc2nc(N)c(C(=O)c3cccnc3)s2)cc1 [Compound 1.117] | 126
N#Cc1ccc(Nc2nc(N)c(C(=O)c3cccnc3)s2)cc1 [Compound 1.108] | 95
Nc1nc(Nc2ccccc2)sc1C(=O)c1cccnc1 [Compound 1.105] | 99
